Biological target: T1, EDIII-DV2 (Dengue virus serotype 2 (DV2), UniProt P14337 581-673)
T1 construct: also called EDIII of DV2; EDIII-DVII
Field: Kd. Provide a value for each of the binders that follow.

Lab note: measured Kd of VH_G27_del (antibody, V domains shown) VH: VKLLEQSGAELVKPGASVRLSCTASFNIKDTYMSWVKQRPEQGLEWIGRIDPENGDTKYDPKFQGKATITADTSSNTAYLHLSSLTSGDTAVYYCSRGWEGFAYWGQGTLVTVSA VL: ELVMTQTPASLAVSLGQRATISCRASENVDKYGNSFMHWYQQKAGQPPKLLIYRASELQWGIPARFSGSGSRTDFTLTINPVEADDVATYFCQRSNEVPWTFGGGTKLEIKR was 0.269 nM

Lab note: measured Kd of 4E5A (antibody, V domains shown, also called 4E11-5A; E45A) VH: VKLLEQSGAELVKPGASVRLSCTASGFNIKDTYMSWVKQRPEQGLEWIGRIDPENGDTKYDPKFQGKATITADTSSNTAYLHLSSLTSGDTAVYYCSRGWEGFAYWGQGTLVTVSA VL: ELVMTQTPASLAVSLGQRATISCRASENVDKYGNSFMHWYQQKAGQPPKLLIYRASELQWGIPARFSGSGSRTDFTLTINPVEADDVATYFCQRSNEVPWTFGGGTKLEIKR was 0.129 nM

Lab note: measured Kd of VH_G27P (antibody, V domains shown, also called 4E5-G27P; copies: 2 + 2) VH: VKLLEQSGAELVKPGASVRLSCTASPFNIKDTYMSWVKQRPEQGLEWIGRIDPENGDTKYDPKFQGKATITADTSSNTAYLHLSSLTSGDTAVYYCSRGWEGFAYWGQGTLVTVSA VL: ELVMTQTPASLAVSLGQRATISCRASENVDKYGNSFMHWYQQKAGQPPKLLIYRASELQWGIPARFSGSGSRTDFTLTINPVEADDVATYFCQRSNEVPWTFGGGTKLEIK was 0.265 nM

Lab note: measured Kd of VH_S26_del (antibody, V domains shown) VH: VKLLEQSGAELVKPGASVRLSCTAGFNIKDTYMSWVKQRPEQGLEWIGRIDPENGDTKYDPKFQGKATITADTSSNTAYLHLSSLTSGDTAVYYCSRGWEGFAYWGQGTLVTVSA VL: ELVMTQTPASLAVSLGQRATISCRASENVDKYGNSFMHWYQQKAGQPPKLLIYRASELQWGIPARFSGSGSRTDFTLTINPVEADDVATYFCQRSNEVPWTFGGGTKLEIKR was 0.104 nM

Numbers sourced from patent US20200207841A1.
